Tested on: ACHN renal
Assay: NCI tumour cell line growth inhibition, 48 h
readoutKind: TGI

Request: Query the reported TGI for ACHN renal; item: C=C1CCCC2[C@](C)(CC3=C(O)C(=O)C=C(OC)C3=O)[C@@H](C)CC[C@]12C (some centres undefined)
Response: 47.7 µM

Request: Then what about the compound "N[C@H](CCC(=O)NCP(=O)(O)O)C(=O)O" ?
Response: > 100 µM

---
Request: Query the reported TGI for ACHN renal; item: "Cc1c(-c2nnc(-c3ccccc3)o2)c(=O)n(-c2ccccc2)n1C"
Response: > 100 µM

Request: Then what about the compound "O=C(CSc1nnc(-c2ccc(N=Cc3ccc(Cl)cc3)cc2)o1)Nc1ccc([N+](=O)[O-])cc1" ?
Response: 25.7 µM

Request: Then what about the compound CCOC(=O)CCC(NC(=O)Cc1ccc(Oc2nc3ccccc3nc2-c2ccccc2)cc1)C(=O)OCC (centres undefined) ?
Response: > 100 µM

Request: Then what about the compound "NC(=O)c1ccccc1NC(=O)c1ccccc1Cl" ?
Response: > 100 µM

Request: Then what about the compound COc1cc(OC2OC(COC(=O)c3cc(O)c(O)c(O)c3)C(O)C(O)C2O)ccc1O (centres undefined) ?
Response: > 100 µM

* * *

Test system: K-562 leukemia
Assay: NCI tumour cell line growth inhibition, 48 h
readoutKind: TGI

These solved cases illustrate the format of a correct answer.
Request: I am curious: what TGI value has been reported for "Cc1cc(N2CCCC2)c([N+](=O)[O-])cc1[N+](=O)[O-]" ?
Response: > 100 µM

Request: Then what about the compound "Cc1c(-c2nnc(-c3ccccc3)o2)c(=O)n(-c2ccccc2)n1C" ?
Response: > 100 µM

Request: Then what about the compound Cc1c(O)c(OC2OC(CO)C(O)C(O)C2O)cc2c1C=C[C@@H]1[C@@]2(C)C(=O)C[C@]2(C)[C@@H]([C@@](C)(O)C(=O)CCC(C)(C)O)[C@H](O)C[C@@]12C (some centres undefined) ?
Response: > 100 µM

Request: Then what about the compound "CCOC(=O)C(C(=O)OCC)C(=O)c1ccccc1C(=O)c1ccccc1" ?
Response: > 100 µM

Request: Then what about the compound "COc1ccc(-c2cc(-c3cccc(NS(C)(=O)=O)c3)nc(N)c2C#N)cc1" ?
Response: > 100 µM

Request: Then what about the compound "Cc1nc2c(N3CCCC3)nc(N3CCNCC3)nc2nc1NCc1ccccc1" ?
Response: 23.8 µM

---
Request: I am curious: what TGI value has been reported for "COc1cccc(N=N/C(=N\NC(=O)c2cc(Br)ccc2O)c2ccc(N(CCC#N)CCC#N)cc2OC)c1" ?
Response: > 150 µg/mL

Request: Then what about the compound "NS(=O)(=O)c1ccc(-n2ncc3c(Nc4ccccc4)ncnc32)cc1" ?
Response: 37.7 µM

Request: Then what about the compound "CNC1=C(C(=O)OC)SC(c2ccccc2)(c2ccccc2)SC1" ?
Response: > 100 µM

* * *

Test system: M14 melanoma
Test: NCI tumour cell line growth inhibition, 48 h
Here the recorded GI50 is given for each entry.

These solved cases illustrate the format of a correct answer.
Request: I am curious: what GI50 value has been reported for "O=C1c2ccccc2-c2c1c1ccc([N+](=O)[O-])cc1c(=O)n2CCCNCCO" ?
Response: 0.0904 µM

Request: Then what about the molecule "NC(=O)c1ccccc1NC(=O)c1ccccc1Cl" ?
Response: > 100 µM

Request: Then what about the molecule "CCN(CC)CCn1c2ccc(OC)cc2c2sc3cc(OC)ccc3c(=O)c21" ?
Response: 1.64 µM

---
Request: I am curious: what GI50 value has been reported for CC(=O)OC(C)c1cc2c(s1)C(=O)c1c(C(C)OC(C)=O)csc1C2=O (centres undefined) ?
Response: 0.516 µM

Request: Then what about the molecule "CNC1=C(C(=O)OC)SC(c2ccccc2)(c2ccccc2)SC1" ?
Response: 7.12 µM

Request: Then what about the molecule COC(=O)[C@]12CC[C@@H](C)[C@H](C)[C@@H]1C1=CC[C@@H]3[C@@]4(C)C(C=O)=C[C@@](C)(COS(C)(=O)=O)C4[C@H](O)C[C@@]3(C)[C@]1(C)CC2 (some centres undefined) ?
Response: 1.68 µM

Request: Then what about the molecule CC1[C@@H]2CC=C3[C@H]4CCC5Cc6nc7c(nc6C[C@@]5(C)C4(O)CC(=O)[C@]32CO[C@]12OC(C)(C)CC2O)CC1CC[C@@H]2C3=C[C@H]4O[C@@]5(O[C@@](C)(CO)C[C@@H]5O)C(C)[C@@]4(O)[C@]3(C)[C@@H](O)CC2[C@]1(C)C7 (some centres undefined) ?
Response: 0.000135 µM

Request: Then what about the molecule "O=C(COc1cccc(/C=C2\Oc3ccc4ccccc4c3C2=O)c1)c1ccc(Cl)cc1" ?
Response: 18.1 µM

Request: Then what about the molecule Fc1ccc2c(c1)C1=C(CO2)C(c2ccc(Cl)cc2)NC(=S)N1 (centres undefined) ?
Response: 24 µM
